- tgt: D3 receptors from African Green monkey (Chlorocebus aethiops, UniProt P52703)
- Construct: expressed in transfected cells; host or cells: COS cells
- Sequence (P52703 whole entry): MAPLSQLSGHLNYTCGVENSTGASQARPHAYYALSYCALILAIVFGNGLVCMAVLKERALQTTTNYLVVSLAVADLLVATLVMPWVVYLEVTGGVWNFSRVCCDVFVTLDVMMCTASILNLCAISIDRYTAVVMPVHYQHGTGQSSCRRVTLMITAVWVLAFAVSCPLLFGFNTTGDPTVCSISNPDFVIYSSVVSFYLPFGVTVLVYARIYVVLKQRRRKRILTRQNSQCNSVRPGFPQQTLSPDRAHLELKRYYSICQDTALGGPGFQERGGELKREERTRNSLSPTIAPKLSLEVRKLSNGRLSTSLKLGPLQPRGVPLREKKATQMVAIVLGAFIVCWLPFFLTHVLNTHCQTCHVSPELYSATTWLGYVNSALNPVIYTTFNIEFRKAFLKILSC
- assay-explanation: D3 receptor binding (displacement of 3H-YM 09151-2)
- condition-notes: COS cells with recombinant D3 receptors; 0.5 nM 3H-YM 09151-2; nonspecific binding with 1 mM spiperone
Where a name gives a salt, the structure may show the parent alone.
reported-property: Ki (nM)

[A] O=C(NCCCCN1CCN(c2nccc3ccccc23)CC1)c1ccc2c(c1)-c1ccccc1-2 [Compound 4]
[B] COc1ccccc1N1CCN(CCCCNC(=O)c2ccc3c(c2)-c2ccccc2-3)CC1 [Compound 1]
[C] O=C(NCCCCN1CCN(c2cccc3ccccc23)CC1)c1ccc2c(c1)-c1ccccc1-2 [Compound 3, dihydrochloride]
Query: Put these in order: smallest Ki first, largest last. Give your ranking as a list of the labels in the requested order.
Result: C, B, A
(C: 3 nM, B: 5 nM, A: 15 nM)
